- ASSAY_INFO: Quantitative High-Throughput drug screen in 47 multiple myeloma cell lines against the NCATS MIPE library collection: PE2_PLB cell viability assay (AID 1919869); note: nearly all actives have a fitted effect of over 35% in size
- CONDITION_SUMMARY: PE2_PLB myeloma cells viability, ATP luminescence, 48 h; series mostly up to 45.8 µM
Results filed as inconclusive are left out. Calls of active or inactive are those of the source. Calls come from the whole dose curve; as a rule, active = well fitted cell-killing curve with a large enough effect; inconclusive = small, poorly fitted or top-dose-only effect, or effect the other way; inactive = no such curve, though single readings can be large or run the other way.
Your reply should match one of these outcome classes. 1 = active, 0 = inactive

Here are 5 molecules together with their reported answers.
>>> discrete_label("CN(C)c1ccc(C2Nc3ccc4ccccc4c3C3=C2C(=O)CC(C)(C)C3)cc1Br (stereo unspecified)")
1
>>> discrete_label("O=C(c1cc(Cc2n[nH]c(=O)c3ccccc23)ccc1F)N1CCN(C(=O)C2CC2)CC1")
1
>>> discrete_label("COc1ccc([C@@H]2CC(=O)c3c(O)cc(O[C@@H]4O[C@H](CO[C@@H]5O[C@@H](C)[C@H](O)[C@@H](O)[C@@H]5O)[C@@H](O)[C@H](O)[C@@H]4O)cc3O2)cc1O")
0
>>> discrete_label("NC[C@H](O)c1ccc(O)c(O)c1")
1
>>> discrete_label("NC(=O)C1CCCc2c1[nH]c1ccc(Cl)cc21 (stereo unspecified)")
1

Turning now to a further record.
Challenge: Test call for this molecule, please: Cc1c(C)c2c(c(C)c1O)CCC(C)(COc1ccc(CC3SC(=O)NC3=O)cc1)O2 (stereo unspecified)
Response given: 1

----------
- ASSAY_INFO: qHTS of pediatric cancer cell lines to identify multiple opportunities for drug repurposing: Confirmatory screen for MG 63 (6-TG R) cells (AID 1347119); note: nearly all actives have a fitted effect of over 55% in size
- CONDITION_SUMMARY: MG-63 (6-TG resistant) osteosarcoma viability; series mostly up to 45.9 µM
Inconclusive results are not listed. Calls of active or inactive are those of the source. Calls come from the whole dose curve; as a rule, active = well fitted cell-killing curve with a large enough effect; inconclusive = small, poorly fitted or top-dose-only effect, or effect the other way; inactive = no such curve, though single readings can be large or run the other way.
Your reply should match one of these outcome classes. 1 for active, -1 for inactive

Here are 5 molecules together with their reported answers.
>>> discrete_label("Nc1nc2ccc(OC(F)(F)F)cc2s1")
1
>>> discrete_label("CCOc1ccn(-c2ccc(F)cc2)c(=O)c1C(=O)Nc1ccc(Oc2ccnc(N)c2Cl)c(F)c1")
1
>>> discrete_label("OC(CN1CCC(Cc2ccc(F)cc2)CC1)c1ccc(Cl)cc1 (configuration not stated)")
-1
>>> discrete_label("NC(=O)c1ccc(I)c([N+](=O)[O-])c1")
-1
>>> discrete_label("C[C@]1(c2nc3c(C(N)=O)cccc3[nH]2)CCCN1")
-1

Challenge: Test call for this molecule, please: NC(N)=NC(=O)c1nc(Cl)c(N)nc1N
Response given: -1

Challenge: Next: CN1CCN(CCCN2c3ccccc3Sc3ccc(C(F)(F)F)cc32)CC1
Response given: 1

Challenge: Next: C#Cc1cccc(Nc2ncnc3cc(OCCOC)c(OCCOC)cc23)c1
Response given: 1

Challenge: Next: NCCCC(N)(C(=O)O)C(F)F (configuration not stated)
Response given: -1

Challenge: Next: CN(C)c1ccc(C2Nc3ccc4ccccc4c3C3=C2C(=O)CC(C)(C)C3)cc1Br (configuration not stated)
Response given: 1

Challenge: Next: Oc1cccc(-c2nc(N3CCOCC3)c3oc4ncccc4c3n2)c1
Response given: 1

Challenge: Next: COCC(=O)NCC=Cc1ccc2ncnc(Nc3ccc(Oc4ccc(C)nc4)c(C)c3)c2c1
Response given: 1

----------
- TARGET_DESC: Tyrosine-protein kinase Yes (Homo sapiens)
- ASSAY_INFO: qHTS for small molecule inhibitors of Yes1 kinase: Primary Screen (AID 686947); note: nearly all actives have a fitted effect of over 60% in size; note: potency is the fitted concentration of half-maximal effect
- CONDITION_SUMMARY: Yes1 kinase biochemical qHTS inhibition; series mostly up to 76.9 µM
Results filed as inconclusive are left out. Active and inactive are the calls of the source. Calls come from the whole dose curve; as a rule, active = well fitted inhibition curve with a large enough effect; inconclusive = small, poorly fitted or top-dose-only effect; inactive = no such curve, though single readings can be large or run the other way.
MEASURED_PROPERTY: Potency

Here is how some molecules turned out for Potency.
>>> assay_result("CS(=O)(=O)c1cccc(CNc2nc(Nc3ccc4c(c3)CCC(=O)N4)ncc2C(F)(F)F)c1")
"972 nM (active)"
>>> assay_result("CNC(=O)c1ccc(N2C(=S)N(c3ccc(C#N)c(C(F)(F)F)c3)C(=O)C2(C)C)cc1F")
"inactive"
>>> assay_result("C[C@@H]1C[C@H]2[C@@H]3CCC4=CC(=O)C=C[C@]4(C)C3(F)[C@@H](O)C[C@]2(C)[C@@]1(O)C(=O)CO (some centres undefined)")
"34500 nM (active)"
>>> assay_result("Oc1cccc(-c2nc(N3CCOCC3)c3oc4ncccc4c3n2)c1")
"inactive"
>>> assay_result("CCOc1cc(C(=O)Nc2ccc(Cl)c(-c3nc4ccccc4[nH]3)c2)cc(OCC)c1OCC")
"inactive"
>>> assay_result("CCC(C)n1ncn(-c2ccc(N3CCN(c4ccc(OC[C@H]5CO[C@](Cn6cncn6)(c6ccc(Cl)cc6Cl)O5)cc4)CC3)cc2)c1=O (some centres undefined)")
"inactive"

I need Potency for every entry listed below, if you could help.
1. CC(C)(N)C(=O)N[C@H](COCc1ccccc1)C(=O)N1CCC2(CC1)CN(S(C)(=O)=O)c1ccccc12
2. Cc1c(CN2CCN(C(=O)C(C)C)CC2)sc2c(N3CCOCC3)nc(-c3cnc(N)nc3)nc12
3. NC(N)=NC(=O)c1nc(Cl)c(N)nc1N
4. CCc1ccc(CCOc2ccc(CC3SC(=O)NC3=O)cc2)nc1 (centres undefined)
5. Cc1cc(C=c2sc3nc4ccccc4n3c2=O)c(C)n1-c1ccccc1
6. Cc1cccc(-c2[nH]c(C(C)(C)C)nc2-c2ccc3nccnc3c2)n1

Response given:
inactive
244 nM (active)
inactive
1730 nM (active)
inactive
688 nM (active)

I need Potency for every entry listed below, if you could help.
1. CC(C)OC(=O)C1=CN(C(=O)c2ccc(F)c(F)c2)CC(C)(C)c2c1[nH]c1ccccc21
2. O=C1[C@H](Cc2ccc(O)cc2)N2C(=O)CCN(C(=O)NCc3ccccc3)[C@H]2CN1Cc1cccc2ccccc12
3. O=C(C1CC1)N1CC[C@@H](Cn2c(-c3ccc(-c4ccc5occc5c4)cc3)nc3cnccc32)C1

Response given:
inactive
inactive
inactive

----------
- ASSAY_INFO: qHTS assay for small molecule agonists of the antioxidant response element (ARE) signaling pathway measured by Nrf2-dependant transcriptional activity - cell viability counter screen (AID 720653); note: % is set by controls: 0 for no effect and ±100 for the full control effect
- CONDITION_SUMMARY: ARE-bla HepG2 viability, CellTiter-Glo ATP luminescence, 16 h; stronger effect = lower value
- Source text: National Center for Advancing Translational Sciences [NCATS] NIH Chemical Genomics Center [NCGC] U.S. Environmental Protection Agency [EPA] National Institutes of Environmental Health Sciences [NIEHS] National Toxicology Program [NTP] […] The activation of the report gene under culture conditions can be detected by fluorescence intensity. The cytotoxicity of the compounds against the ARE-bla HepG2 cell line was quantified by measuring the intracellular ATP content. […]
Records with an inconclusive call do not appear. Calls of active or inactive are those of the source. Calls come from the whole dose curve; as a rule, active = well fitted cell-killing curve with a large enough effect in the repeat runs; inconclusive = weak or mixed curves; inactive = flat fitted curve, though single readings scatter.
Assign max response to each entry below.

I need max response for every entry listed below, if you could help.
1. NC(N)=NC(=O)c1nc(Cl)c(N)nc1N
2. O=NN(CCCl)C(=O)NCCCl
3. Cc1[nH]c(=O)c(C#N)cc1-c1ccncc1

Response given:
1: -15% (inactive); 2: -0.208% (inactive); 3: 11.3% (inactive)

I need max response for every entry listed below, if you could help.
1. COc1ccc2nc(S(=O)Cc3ncc(C)c(OC)c3C)[nH]c2c1 (configuration not stated)
2. C[C@]12CCC(=O)C=C1CC[C@@H]1[C@@H]2[C@@H](O)C[C@@]2(C)[C@H]1CC[C@]2(O)C(=O)CO
3. NS(=O)(=O)c1cc2c(cc1Cl)NC=NS2(=O)=O
4. O=c1[nH]cnc2[nH]ncc12

Response given:
["1.66% (inactive)", "-2.33% (inactive)", "-14.4% (inactive)", "-4.44% (inactive)"]

----------
Assign Potency to each entry below.
- ASSAY_INFO: Cell Proliferation Assay Versus the ED40515 IL2 Dependent ATL cell lines (AID 1053195)
- CONDITION_SUMMARY: ED40515 IL2-dependent ATL cells
Active and inactive are the calls of the source. The call rests on the fitted dose curve.

I need Potency for every entry listed below, if you could help.
1. C[C@@H]1C[C@H]2[C@@H]3CCC4=CC(=O)C=C[C@]4(C)C3(F)[C@@H](O)C[C@]2(C)[C@@]1(O)C(=O)CO (some centres undefined)
2. Cc1c(C)c2c(c(C)c1O)CCC(C)(COc1ccc(CC3SC(=O)NC3=O)cc1)O2 (centres undefined)
3. C[C@]1(c2nc3c(C(N)=O)cccc3[nH]2)CCCN1
4. O=C(Nc1cccnc1)N1CCC(Cc2cccc(Oc3ccc(C(F)(F)F)cn3)c2)CC1
5. O=c1ncn2nc(Sc3ccc(F)cc3F)ccc2c1-c1c(Cl)cccc1Cl
6. CCCS(=O)(=O)Nc1ccc(F)c(C(=O)c2c[nH]c3ncc(-c4ccc(Cl)cc4)cc23)c1F
7. CCOC(=O)C1=C[C@@]2(CC)CCCN3CCc4c(n1c1ccccc41)[C@H]32

Response given:
1: 2.64 µM (active); 2: 16.6 µM (active); 3: 16.6 µM (active); 4: 5.9 µM (active); 5: 16.6 µM (active); 6: 20.9 µM (active); 7: 9.5 µM (active)

I need Potency for every entry listed below, if you could help.
1. COc1ccc(-c2ccc3c(N4CCOC[C@H]4C)nc(N4CCOC[C@H]4C)nc3n2)cc1CO
2. Cn1cc(-c2ccc3nnc(C(F)(F)c4ccc5ncccc5c4)n3n2)cn1

Response given:
1. 0.0935 µM (active)
2. 7.43 µM (active)
